test system: L1210 (mouse lymphocytic leukemia) cells; assay: Cell growth inhibition assay, L1210; format: cell-based; conditions: 72 hours incubation, phosphatase assay
The entries below come with measured IC50 values attached.
Enter your answer as a number in nM; do not include the unit.

# compound, IC50 (nM)
measured = [
    ("CC[C@]1(NC(=O)N2Cc3ccc(NC(=O)c4ccncn4)cc3C2)C[C@H]2CN(CCc3c([nH]c4ccccc34)[C@@](C(=O)OC)(c3cc4c(cc3OC)N(C)[C@H]3[C@@](O)(C(=O)OC)[C@H](OC(C)=O)[C@]5(CC)C=CCN6CC[C@]43[C@@H]65)C2)C1", 0.062),
]

Request: May I ask what IC50 has been recorded for "CCC(=O)Nc1ccc2c(c1)CN(C(=O)N[C@@]1(CC)C[C@H]3CN(CCc4c([nH]c5ccccc45)[C@@](C(=O)OC)(c4cc5c(cc4OC)N(C)[C@H]4[C@@](O)(C(=O)OC)[C@H](OC(C)=O)[C@]6(CC)C=CCN7CC[C@]54[C@@H]76)C3)C1)C2" ?
Result: 0.46

###

test system: L1210 (mouse lymphocytic leukemia) cells; test: Cell growth inhibition assay, L1210; format: cell-based; conditions: 72 hours incubation, phosphatase assay
observable: IC50 (nM)
Enter your answer as a number in nM; do not include the unit.

# chemical structure, observable, reported measurement
records = [
    ("CC[C@]1(NC(=O)N2Cc3ccc(C)cc3C2)C[C@H]2CN(CCc3c([nH]c4ccccc34)[C@@](C(=O)OC)(c3cc4c(cc3OC)N(C)[C@H]3[C@@](O)(C(=O)OC)[C@H](OC(C)=O)[C@]5(CC)C=CCN6CC[C@]43[C@@H]65)C2)C1", "IC50", 0.41),
]

Request: May I ask what IC50 has been recorded for "C=CC(=O)Nc1ccc2c(c1)CN(C(=O)N[C@@]1(CC)C[C@H]3CN(CCc4c([nH]c5ccccc45)[C@@](C(=O)OC)(c4cc5c(cc4OC)N(C)[C@H]4[C@@](O)(C(=O)OC)[C@H](OC(C)=O)[C@]6(CC)C=CCN7CC[C@]54[C@@H]76)C3)C1)C2" ?
Result: 0.38

Request: Proceed to "CC[C@]1(NC(=O)N2Cc3ccc(C(F)(F)F)cc3C2)C[C@H]2CN(CCc3c([nH]c4ccccc34)[C@@](C(=O)OC)(c3cc4c(cc3OC)N(C)[C@H]3[C@@](O)(C(=O)OC)[C@H](OC(C)=O)[C@]5(CC)C=CCN6CC[C@]43[C@@H]65)C2)C1"
Result: 0.59

Request: Proceed to "CC[C@]1(NC(=O)N2Cc3ccc(Cl)cc3C2)C[C@H]2CN(CCc3c([nH]c4ccccc34)[C@@](C(=O)OC)(c3cc4c(cc3OC)N(C)[C@H]3[C@@](O)(C(=O)OC)[C@H](OC(C)=O)[C@]5(CC)C=CCN6CC[C@]43[C@@H]65)C2)C1"
Result: 0.5

###

tested on: L1210 (mouse lymphocytic leukemia) cells; test: Cell growth inhibition assay, L1210; format: cell-based; conditions: 72 hours incubation, phosphatase assay
observable: pIC50
# reply with the number alone; pIC50 is -log10 of concentration in mol/L

Check out these entries, answers already filled in.
# compound, reported measurement
rows = [
    ("CC[C@]1(NC(=O)N2Cc3ccc(NC(=O)C(C)(C)C)cc3C2)C[C@H]2CN(CCc3c([nH]c4ccccc34)[C@@](C(=O)OC)(c3cc4c(cc3OC)N(C)[C@H]3[C@@](O)(C(=O)OC)[C@H](OC(C)=O)[C@]5(CC)C=CCN6CC[C@]43[C@@H]65)C2)C1", 9.41),
    ("CC[C@]1(NC(=O)N2Cc3ccc(Br)cc3C2)C[C@H]2CN(CCc3c([nH]c4ccccc34)[C@@](C(=O)OC)(c3cc4c(cc3OC)N(C)[C@H]3[C@@](O)(C(=O)OC)[C@H](OC(C)=O)[C@]5(CC)C=CCN6CC[C@]43[C@@H]65)C2)C1", 9.21),
    ("CC[C@]1(NC(=O)N2CCC(C#N)C2)C[C@H]2CN(CCc3c([nH]c4ccccc34)[C@@](C(=O)OC)(c3cc4c(cc3OC)N(C)[C@H]3[C@@](O)(C(=O)OC)[C@H](OC(C)=O)[C@]5(CC)C=CCN6CC[C@]43[C@@H]65)C2)C1 (single isomer, unassigned) [Compound 20]", 8.43),
]

Moving on to another compound below.
Request: May I ask what pIC50 has been recorded for CCC1(NC(=O)N2CCC(Br)C2)CC2CN(CCc3c([nH]c4ccccc34)C(C(=O)OC)(c3cc4c(cc3OC)N(C)C3C(O)(C(=O)OC)C(OC(C)=O)C5(CC)C=CCN6CCC43C65)C2)C1 (mixture of isomers) ?
Result: 8.51
